# Test system: PC-3
# Method Summary: Inhibition of PC3 cell migration
# Assay type: functional, cell-based
# Protocol Conditions: Homo sapiens
# note: exactly 20 µM is not below, so it is criterion not met; use criterion met for IC50 strictly under it

| Molecular String | Assayed System | Label Value |
| --- | --- | --- |
| N#Cc1c(-c2ccccc2)c(NCCc2ccccc2)n2c(Cl)cccc12 | PC-3 | criterion not met |
| N#Cc1c(-c2ccccc2)c(NC2CCCCC2)n2c(Cl)cccc12 | PC-3 | criterion not met |
| N#Cc1c(-c2ccccc2)c(NCCc2ccccc2Cl)n2c(Cl)cccc12 | PC-3 | criterion not met |
| N#Cc1c(-c2cccc(F)c2)c(NCCc2ccccc2)n2c(Cl)cccc12 | PC-3 | criterion met |
| N#Cc1c(-c2ccccc2)c(NCC(=O)NCc2ccco2)n2c(Cl)cccc12 | PC-3 | criterion not met |

meta.source: ChEMBL document CHEMBL1146846
